From: PubChem BioAssay

Experiment: SK-BR-3 cell growth inhibitors, pilot screen, 24 h, human (AID 572);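 also: compound exposure lasted between 18 and 24 h rather than exactly 24 h; 100% = carrier-treated control wells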
Settings: SK-BR-3 viability, CellTiter-Glo luminescence, at 10 µM, active compounds read low
Would you kindly list viability for each of these compounds?
Number only, in %; omit the unit.

q: // query viability value for entry O=C(NC1(C(F)(F)F)C(=O)Nc2c1c(=O)[nH]c(=O)n2Cc1ccco1)C1CCCCC1 (configuration not stated)
a: 106

q: For `Cc1nc(-c2ccccc2)sc1C(N)=O` then?
a: 107

q: And the next one, `O=C(CSc1nnc(-c2cnccn2)n1Cc1ccco1)c1ccc(Cl)cc1` ?
a: 90

q: Request: `COc1ccc2[nH]c(=O)c(CN(Cc3cccs3)Cc3nnnn3C(C)(C)C)cc2c1`
a: 77.5

q: Next compound: `Cc1ccc(S(=O)(=O)N2CCOCC2)cc1C(=O)Nc1ccc(-c2cn3ccsc3n2)cc1`
a: 80

q: What about this compound? `CN(CC(=O)N1CCN(C2CCCCC2)CC1)S(=O)(=O)c1cccc2nsnc12`
a: 88

q: Follow-up entry: `COCC(=O)Nc1cc(OC)ccc1OC`
a: 83

q: What would you report for O=C(CSc1nc2cc(S(=O)(=O)N3CCOCC3)ccc2o1)NC1CCCc2ccccc21 (configuration not stated) ?
a: 61

q: Proceed to `O=C(Nc1ccc(S(=O)(=O)N2CCc3ccccc32)cc1)c1ccc2c(c1)OCO2`
a: 77

q: Also, `Nc1nc(-c2ccc(Br)s2)c(Br)s1` please.
a: 100

q: Now try `CC(=O)c1ccc(-n2nnnc2SCC(=O)N2CCc3ccccc3C2)cc1` .
a: 94

q: Now the same for `CCCc1cc(C(=O)Nc2ccccc2C(=O)OC)no1`
a: 89.5

q: Entry to check: CS(=O)(=O)NCC(c1cccnc1)N1CCN(c2ccc(F)cc2)CC1 (configuration not stated)
a: 107

q: How about `COc1ccc(C(=O)NCCc2nnc(SCc3nc4ccccc4c(=O)[nH]3)n2C)cc1` ?
a: 101

q: // query: Cc1ccc(N(C(C)C(=O)Nc2ccc(S(=O)(=O)N3CCOCC3)cc2)S(C)(=O)=O)cc1 (configuration not stated)
a: 87

q: Okay, and `CCOc1ccc(-c2c(C#N)c(N)nc3c2c(=O)n(C)c(=O)n3C)cc1OC` ?
a: 114

q: Again, but for O=C(O)c1cccc(NC(=O)C2C3C=CC(C3)C2C(=O)OCC(F)(F)C(F)F)c1 (configuration not stated)
a: 102

q: Next entry: `COc1cc(Nc2cc(C)nc3ncnn23)cc(OC)c1OC`
a: 102

q: Entry `COc1cccc(C=Nc2ccc3c(c2)OCCO3)c1O` please
a: 115

q: Same question, `Cn1c(=O)[nH]c(=O)c2c1nc(N1CCCCCC1)n2CCCSc1nc2ccccc2o1` this time
a: 84.5

q: // query: CC(CN(C)Cc1ccccc1)OC(=O)c1ccc2c(c1)OCCO2 (configuration not stated)
a: 93

q: Check `COc1ccccc1NC(=O)Cn1nnc(-c2ccccc2NC(=O)c2ccco2)n1` too.
a: 91.5
